# measurement_target: T1, CCR7 on CHO-K1 cells (human, UniProt P32248 25-378)
# T1 construct: chemokine receptor CCR7; source: CHO-K1, stably expressing, alone or co-expressed with ChemR23 (clone 26); membrane preparations or cells
# T1 sequence (looked up): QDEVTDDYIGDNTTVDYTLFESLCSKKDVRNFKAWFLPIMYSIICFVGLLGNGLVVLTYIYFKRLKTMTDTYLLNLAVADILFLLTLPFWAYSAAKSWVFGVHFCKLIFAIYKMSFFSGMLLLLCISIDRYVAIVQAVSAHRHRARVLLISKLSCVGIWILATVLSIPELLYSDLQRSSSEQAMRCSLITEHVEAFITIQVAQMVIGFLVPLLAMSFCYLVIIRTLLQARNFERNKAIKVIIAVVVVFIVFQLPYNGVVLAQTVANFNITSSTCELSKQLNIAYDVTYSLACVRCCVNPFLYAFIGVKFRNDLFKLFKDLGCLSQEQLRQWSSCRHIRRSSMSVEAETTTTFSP
# assay_protocol: radioligand binding; competition on CHO-K1 cells co-expressing ChemR23 and CCR7; tracer 0.1 nM 125I-[145-157]-chemerin; competitors chemerin (homologous) or CCL19 (heterologous, cross-competition); same buffer, one hour, filtration
# reported_conditions: one partner purified

| binder | value_units | IC50 |
| --- | --- | --- |
| CCL19 (unlabelled) (ligand, UniProt Q99731 22-98, looked up, chemokine CCL19, the CCR7-specific ligand) GTNDAEDCCLSVTQKPIPGYIVRNFHYLLIKDGCRVPAVVFTTLRGRQLCAPPDQPWVERIIQRLQRTSAKMKRRSS | nM | 6.85 |
